FYI, the data here is from patent US8901147B2.

Target: recombinant human Vps34 (Homo sapiens)
Sequence (Q8NEB9 whole entry): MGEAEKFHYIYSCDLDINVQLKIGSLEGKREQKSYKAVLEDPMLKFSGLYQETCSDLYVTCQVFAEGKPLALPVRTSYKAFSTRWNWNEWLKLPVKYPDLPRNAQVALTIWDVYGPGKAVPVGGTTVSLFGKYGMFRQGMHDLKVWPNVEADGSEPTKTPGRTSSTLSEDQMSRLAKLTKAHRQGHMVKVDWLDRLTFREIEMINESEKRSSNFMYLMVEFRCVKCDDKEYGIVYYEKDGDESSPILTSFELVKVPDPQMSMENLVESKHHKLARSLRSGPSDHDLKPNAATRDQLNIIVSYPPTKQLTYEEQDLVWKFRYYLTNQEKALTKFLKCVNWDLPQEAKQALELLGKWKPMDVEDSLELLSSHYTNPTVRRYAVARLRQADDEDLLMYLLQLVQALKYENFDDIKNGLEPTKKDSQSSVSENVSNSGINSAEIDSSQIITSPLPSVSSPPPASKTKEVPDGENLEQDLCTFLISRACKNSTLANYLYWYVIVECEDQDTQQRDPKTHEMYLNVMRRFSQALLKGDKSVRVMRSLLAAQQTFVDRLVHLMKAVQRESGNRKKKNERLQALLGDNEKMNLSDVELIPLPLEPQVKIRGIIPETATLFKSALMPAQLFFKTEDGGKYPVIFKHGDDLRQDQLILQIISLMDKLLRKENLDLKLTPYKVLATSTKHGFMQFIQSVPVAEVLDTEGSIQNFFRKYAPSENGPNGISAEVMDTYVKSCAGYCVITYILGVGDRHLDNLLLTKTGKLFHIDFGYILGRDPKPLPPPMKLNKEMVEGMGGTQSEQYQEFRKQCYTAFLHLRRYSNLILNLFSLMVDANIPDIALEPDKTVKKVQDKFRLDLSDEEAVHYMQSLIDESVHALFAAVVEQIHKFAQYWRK
Test: Vps34 KinaseGlo assay
Details: KinaseGlo luminescence ATP detection; PI/OG substrate; 1 μM ATP; room temperature; 8 concentrations, n=2
MEASURED QUANTITY: IC50 (nM)

[
  {
    "MOLECULE": "CNc1ncc(-c2ccnc(N[C@H]3CC[C@H](NC(=O)OC(C)(C)C)CC3)n2)c(CC2CC2)n1 [Example 14i]",
    "OUTPUT UNIT": "nM",
    "IC50": 348
  },
  {
    "MOLECULE": "CNc1ncc(-c2ccnc(Nc3ccccc3)n2)c(CC2CC2)n1 [Example 14b]",
    "OUTPUT UNIT": "nM",
    "IC50": 286
  },
  {
    "MOLECULE": "CNc1ncc(-c2ccnc(Nc3ccc(OC)cc3)n2)c(CC2CC2)n1 [Example 14m]",
    "OUTPUT UNIT": "nM",
    "IC50": 119
  },
  {
    "MOLECULE": "CC(=O)Nc1ccc(Nc2nccc(-c3cnc(NCC(C)(C)O)nc3CC3CC3)n2)cc1 [Example 16f]",
    "OUTPUT UNIT": "nM",
    "IC50": 138
  },
  {
    "MOLECULE": "C[C@@H](Nc1ncc(-c2ccnc(Nc3ccncc3)n2)c(CC2CC2)n1)c1ccccc1 [Example 10h]",
    "OUTPUT UNIT": "nM",
    "IC50": 258
  },
  {
    "MOLECULE": "CC(C)(O)CNc1ncc(-c2ccnc(Nc3ccc(C#N)cc3)n2)c(C(F)(F)F)n1",
    "OUTPUT UNIT": "nM",
    "IC50": 117
  },
  {
    "MOLECULE": "C[C@@H](CO)Nc1ncc(-c2ccnc(Nc3ccncc3)n2)c(CC2CC2)n1 [Example 10q]",
    "OUTPUT UNIT": "nM",
    "IC50": 53
  },
  {
    "MOLECULE": "CC(C)(O)CNc1ncc(-c2ccnc(Nc3ccc(Cl)cc3)n2)c(CC2CC2)n1 [Example 16e]",
    "OUTPUT UNIT": "nM",
    "IC50": 105
  }
]

P: CNc1ncc(-c2ccnc(Nc3cnc4ccccc4c3)n2)c(CC2CC2)n1 [Example 14d]
Q: c1cc(Nc2nccc(-c3cnc(NC4CCOCC4)nc3CC3CC3)n2)ccn1 [Example 10g]
R: CCc1nc(NCC(C)(C)O)ncc1-c1ccnc(Nc2ccc(C#N)cc2)n1 [Example 37a]
Could you please order the items by IC50, going from the lowest number to the highest? # output: labels, in the requested order
R, P, Q

A: CNc1ncc(-c2ccnc(Nc3ccc(OC)nc3)n2)c(CC2CC2)n1 [Example 14a]
B: C[C@H](CO)Nc1ncc(-c2ccnc(Nc3ccncc3)n2)c(CC2CC2)n1 [Example 10p]
API: POST /compare with A and B ; response names the item with higher IC50. Choose, then provide that item's label.
B
(B: 210 nM, A: 115 nM)
